Source listed as paper PMC12299506.

inhibition at 50 µM values, listed per item
biological target: LDHB (Homo sapiens, UniProt P07195); construct: purchased R&D Systems (Minneapolis, MN, USA) 9205-HB; test: LDHB activity assay, 96-well endpoint colorimetric (lactate to pyruvate, NADH/NBT/PMS formazan, 570 nm); format: biochemical; conditions: compound at 50 µM
Sequence (P07195 whole entry): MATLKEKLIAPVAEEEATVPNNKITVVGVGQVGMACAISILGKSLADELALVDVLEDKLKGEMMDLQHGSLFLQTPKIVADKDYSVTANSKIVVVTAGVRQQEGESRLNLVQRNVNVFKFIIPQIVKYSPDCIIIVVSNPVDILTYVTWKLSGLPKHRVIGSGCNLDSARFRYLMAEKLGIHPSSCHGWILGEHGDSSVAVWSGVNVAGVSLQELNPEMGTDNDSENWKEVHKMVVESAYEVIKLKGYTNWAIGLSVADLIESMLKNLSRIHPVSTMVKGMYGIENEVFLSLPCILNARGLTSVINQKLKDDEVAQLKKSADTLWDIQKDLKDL

                                   compound  recorded_result
0  O=c1c(O)c(-c2ccc(O)c(O)c2)oc2cc(O)ccc12 [Fisetin]             ~22%
1  c1ccc(CNCCc2c(CNC3CCCCCC3)[nH]c3ccccc23)cc1 [AXKO-0046, reference compound]             ~75%
2  O=c1cc(-c2ccc(O)c(O)c2)oc2cc(O)cc(O)c12 [Luteolin]             ~55%

Now consider the entry below.
Form: Entry = O=c1c(O)c(-c2ccc(O)c(O)c2)oc2cc(O)cc(O)c12 [Quercetin] | System = LDHB (Homo sapiens, UniProt P07195) | inhibition at 50 µM = ____ ~50%

* * *

Hi! I'm sharing some IC50 results obtained with LDHB (Homo sapiens, UniProt P07195).
Give the quantity in µM, number only.

In [3]: df
Out[3]:
                                   compound  measured_parameter  recorded_result
0  c1ccc(CNCCc2c(CNC3CCCCCC3)[nH]c3ccccc23)cc1 [AXKO-0046, reference compound]                IC50          0.00556
1  O=c1c(O)c(-c2ccc(O)c(O)c2)oc2cc(O)cc(O)c12                IC50             37.7

Next up:
Which IC50 value belongs to O=c1cc(-c2ccc(O)c(O)c2)oc2cc(O)cc(O)c12 ? 32.2

* * *

target: LDHB (Homo sapiens); construct: purchased R&D Systems (Minneapolis, MN, USA) 9205-HB; assay: LDHB kinetic studies (substrate competition, Michaelis-Menten, mixed-model inhibition); type: biochemical; conditions: mixed-model inhibition fit, with NAD+
Measured parameter: Ki (µM)
Your answer should be a plain number; it is taken to be in µM.

>>> df
                                   molecule  recorded_result
0  O=c1c(O)c(-c2ccc(O)c(O)c2)oc2cc(O)cc(O)c12 [Quercetin]              539

# evaluate next
Name the recorded Ki for O=c1cc(-c2ccc(O)c(O)c2)oc2cc(O)cc(O)c12 [Luteolin] . 194
